From: the supplement of paper PMC10065799

Tested on: c-Abl (mouse)
Protocol Details: phosphorylation enrichment, bacterial display (enrichment ratio); higher = better substrate or ligand; peptides without Tyr show the background
Listed here are sequences together with their documented phosphorylation enrichment.

- Seq: "FISLIYTNFEV [GSTP1_Y109_A114V_YF]"
  phosphorylation enrichment: 3.47
- Seq: "EFFDGYWEFSV [ITGA2B_Y265_G267E_YF]"
  phosphorylation enrichment: 1.19
- Seq: "FADIAYNFRHG [PAH_Y166_YF]"
  phosphorylation enrichment: 0.578
- Seq: "RAMPVYKKAEH [TP63_Y231]"
  phosphorylation enrichment: 0.301

---

System Name: EPHB1 (UniProt P54762)
Sequence (P54762 whole entry, looked up): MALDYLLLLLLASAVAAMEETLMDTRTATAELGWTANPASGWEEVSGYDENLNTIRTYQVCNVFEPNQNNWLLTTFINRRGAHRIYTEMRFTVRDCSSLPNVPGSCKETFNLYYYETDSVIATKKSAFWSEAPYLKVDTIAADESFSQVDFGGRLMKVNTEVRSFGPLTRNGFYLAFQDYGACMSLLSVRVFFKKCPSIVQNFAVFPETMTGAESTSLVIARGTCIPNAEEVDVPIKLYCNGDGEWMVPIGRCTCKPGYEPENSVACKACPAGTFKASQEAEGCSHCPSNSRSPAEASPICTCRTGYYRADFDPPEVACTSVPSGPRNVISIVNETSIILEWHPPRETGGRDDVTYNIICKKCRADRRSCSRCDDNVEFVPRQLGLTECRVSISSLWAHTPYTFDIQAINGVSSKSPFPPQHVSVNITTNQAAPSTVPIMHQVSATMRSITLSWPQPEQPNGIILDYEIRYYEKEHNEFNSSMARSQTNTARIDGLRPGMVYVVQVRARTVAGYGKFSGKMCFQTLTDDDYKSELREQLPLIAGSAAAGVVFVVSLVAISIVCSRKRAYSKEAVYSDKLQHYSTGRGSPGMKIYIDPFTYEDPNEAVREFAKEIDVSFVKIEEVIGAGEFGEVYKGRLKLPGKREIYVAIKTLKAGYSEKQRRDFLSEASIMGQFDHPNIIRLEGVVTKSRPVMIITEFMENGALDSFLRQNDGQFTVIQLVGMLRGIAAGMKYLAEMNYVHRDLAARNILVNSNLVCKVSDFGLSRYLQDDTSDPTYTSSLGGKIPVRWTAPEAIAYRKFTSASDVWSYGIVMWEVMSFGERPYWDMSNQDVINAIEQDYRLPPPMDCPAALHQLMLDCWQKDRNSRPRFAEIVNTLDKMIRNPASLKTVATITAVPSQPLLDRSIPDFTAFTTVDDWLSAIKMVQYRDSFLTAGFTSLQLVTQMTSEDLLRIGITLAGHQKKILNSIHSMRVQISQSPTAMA
Protocol Details: phosphorylation enrichment, bacterial display (enrichment ratio); higher = better substrate or ligand; peptides without Tyr show the background
Entry flag: true (1) if phosphorylation enrichment reaches 0.6; false (0) if it does not.

- Seq: "YYLGKYLQEVL [KLB_Y910]"
  Classification: "false (0)"
- Seq: "RQSTLYSFFPK [MSH6_Y8]"
  Classification: "true (1)"
- Seq: "TQPSPYAVYRF [RPGRIP1_Y823]"
  Classification: "true (1)"
- Seq: "KRAIGYYSATS [FAM120A_Y327]"
  Classification: "false (0)"
- Seq: "EKMWSYMKSAE [GRIA3_Y705]"
  Classification: "false (0)"
- Seq: "TTICKYITPME [GUCY2C_Y839_S840I]"
  Classification: "false (0)"
- Seq: "SEPDLYCDPRG [PKP1_Y160]"
  Classification: "true (1)"
- Seq: "EFNINYNNELP [THG1L_Y228]"
  Classification: "false (0)"
- Seq: "YRNKPYISWPS [CDC42BPB_Y1638_S1633Y]"
  Classification: "false (0)"
- Seq: "SLQSEYVHFGG [CDC14A_Y591_YF]"
  Classification: "true (1)"
- Seq: "KSAAIYNPVIF [RHO_Y301_YF]"
  Classification: "false (0)"
- Seq: "RILENYGADID [DNAH5_Y596_L591R]"
  Classification: "true (1)"
- Seq: "SHGQDYLAGNK [GSTA2_Y147_V149A]"
  Classification: "false (0)"
- Seq: "ILGRYYERGSI [PAX5_Y73_T75R]"
  Classification: "false (0)"
- Seq: "GRSTFYWPRPR [GAGE12J_Y10_YF]"
  Classification: "false (0)"
- Seq: "RMLREYQELMS [KRT74_Y425]"
  Classification: "true (1)"
- Seq: "RMSQRYGDVLQ [CYP1A2_Y72]"
  Classification: "false (0)"
- Seq: "ADPQEYIPLPA [JAKtide_2014]"
  Classification: "false (0)"
- Seq: "CTTIHYNFMCS [TP53_Y234_N239S_YF]"
  Classification: "true (1)"
- Seq: "TFEFRYLEDQD [CNOT3_Y746_R750Q_YF]"
  Classification: "true (1)"
- Seq: "REVPVYTYSEP [FAM120B_Y368_D370Y]"
  Classification: "true (1)"
- Seq: "GKFRMYVAVWT [F13A1_Y161]"
  Classification: "false (0)"
- Seq: "EFGEVYKGMLK [EPHA2_Y628]"
  Classification: "false (0)"
- Seq: "EVTLTYATGIK [NFKB1_Y485_T489I]"
  Classification: "false (0)"
- Seq: "SVTCTYSPALN [TP53_Y126]"
  Classification: "true (1)"
- Seq: "KANEYYPVVLI [ADAMTS18_Y765]"
  Classification: "true (1)"
- Seq: "MSGDVYSTDFF [NTRK2_Y702_R699G_YF]"
  Classification: "true (1)"
- Seq: "FCRHNYGVVES [HLA-DRB1_Y112_YF]"
  Classification: "true (1)"
- Seq: "NKKHHYRELPV [ERN2_Y860]"
  Classification: "true (1)"
- Seq: "TKDTFHKQPMF [GBA_Y451_Y451H]"
  Classification: "false (0)"
- Seq: "GVRLFYRVMES [RB1_Y454_YF]"
  Classification: "true (1)"

---

System Name: Grb2 SH2 (UniProt P62993)
Sequence (P62993 whole entry, looked up): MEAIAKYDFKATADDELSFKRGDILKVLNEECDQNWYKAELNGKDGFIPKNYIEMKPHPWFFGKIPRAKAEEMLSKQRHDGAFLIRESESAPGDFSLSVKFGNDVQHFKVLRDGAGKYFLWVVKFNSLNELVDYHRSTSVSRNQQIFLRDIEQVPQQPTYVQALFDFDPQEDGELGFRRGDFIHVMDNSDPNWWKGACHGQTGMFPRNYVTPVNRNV
Protocol Details: SH2 binding enrichment of the phosphorylated peptide, bacterial display (enrichment ratio); higher = better substrate or ligand; peptides without Tyr show the background
Measured SH2 binding enrichment, listed per entry.
Readout Type: SH2 binding enrichment

- Seq: "HLDRSYSFSFS [PEAR1_Y890_R885H_YF]"
  Readout Type: "SH2 binding enrichment"
  Reported: 0.808
- Seq: "KLLLKYSFHDV [RNF213_Y4141]"
  Readout Type: "SH2 binding enrichment"
  Reported: 1.15
- Seq: "EPSLVYMVTKI [CPS1_Y768_D767V]"
  Readout Type: "SH2 binding enrichment"
  Reported: 0.769
- Seq: "HDEPTYARSSK [PEAK1_Y616]"
  Readout Type: "SH2 binding enrichment"
  Reported: 0.92
- Seq: "LTFHMYADPNF [SOS1_Y618_YF]"
  Readout Type: "SH2 binding enrichment"
  Reported: 0.854
- Seq: "VRFMAYTDEIF [F8_Y450_T454I]"
  Readout Type: "SH2 binding enrichment"
  Reported: 1.07
- Seq: "SVTCTNSPALN [TP53_Y126_Y126N]"
  Readout Type: "SH2 binding enrichment"
  Reported: 0.659
- Seq: "LRLFSYSTTIR [CYP7B1_Y365_S363F]"
  Readout Type: "SH2 binding enrichment"
  Reported: 0.983
- Seq: "FEGRSYSACTT [MMP9_Y241]"
  Readout Type: "SH2 binding enrichment"
  Reported: 0.818
- Seq: "KKDGPYDVVVL [PARK7_Y67_E64D]"
  Readout Type: "SH2 binding enrichment"
  Reported: 0.855
- Seq: "MDDPRYGMCPL [ZNF100_Y6]"
  Readout Type: "SH2 binding enrichment"
  Reported: 0.632
- Seq: "SHNKFYMLVAR [MFSD8_Y134_YF]"
  Readout Type: "SH2 binding enrichment"
  Reported: 1.4
- Seq: "GREEFYSTHPH [LRRK2_Y1402]"
  Readout Type: "SH2 binding enrichment"
  Reported: 0.845
- Seq: "FAKSVYWDNTL [NUP107_Y296_E298D_YF]"
  Readout Type: "SH2 binding enrichment"
  Reported: 0.781
- Seq: "CKLYQYYLDHL [ATRX_Y1849]"
  Readout Type: "SH2 binding enrichment"
  Reported: 0.731
- Seq: "FKEDPYLVVNP [MCM6_Y810_E806K_YF]"
  Readout Type: "SH2 binding enrichment"
  Reported: 0.762
- Seq: "ETGEPCRLSPE [EIF4G1_Y311_Y311C]"
  Readout Type: "SH2 binding enrichment"
  Reported: 0.866
- Seq: "VGTTAYMAPEA [IRAK4_Y354]"
  Readout Type: "SH2 binding enrichment"
  Reported: 0.918
- Seq: "LTVVIYVLIGR [EPHA3_Y561]"
  Readout Type: "SH2 binding enrichment"
  Reported: 1.64
- Seq: "RWGQKYMTAVV [CYBA_Y72]"
  Readout Type: "SH2 binding enrichment"
  Reported: 1.57
- Seq: "EHTILYSNNST [KANSL1_Y223_T221I]"
  Readout Type: "SH2 binding enrichment"
  Reported: 0.845
- Seq: "YGMSSYITRED [FNDC3B_Y180_T179S]"
  Readout Type: "SH2 binding enrichment"
  Reported: 0.764
- Seq: "EACPSYSHVVL [CHST6_Y168_R166P]"
  Readout Type: "SH2 binding enrichment"
  Reported: 1
- Seq: "DLNATYCTIQG [U2SURP_Y634_R635C]"
  Readout Type: "SH2 binding enrichment"
  Reported: 0.982
- Seq: "GGRKGYGGFSR [RECQL5_Y478_D480G]"
  Readout Type: "SH2 binding enrichment"
  Reported: 0.736
- Seq: "DENCFYTRAAS [RPS19_Y54_W52C]"
  Readout Type: "SH2 binding enrichment"
  Reported: 0.868
- Seq: "VNRSGYTLIRK [ATP6V0A2_Y688]"
  Readout Type: "SH2 binding enrichment"
  Reported: 0.56
- Seq: "KLPYLYDDPFS [GPX2_Y127_P126L]"
  Readout Type: "SH2 binding enrichment"
  Reported: 0.765
- Seq: "NFDRIYIFHLR [MYOF_Y1137_V1136I_YF]"
  Readout Type: "SH2 binding enrichment"
  Reported: 1.59
- Seq: "DLDFTYIFPNI [PTEN_Y27_L25F_YF]"
  Readout Type: "SH2 binding enrichment"
  Reported: 0.758
- Seq: "KELALYDENWF [RPS19_Y48_P47L]"
  Readout Type: "SH2 binding enrichment"
  Reported: 0.834
- Seq: "TYGVVYKARNK [CDK2_Y19]"
  Readout Type: "SH2 binding enrichment"
  Reported: 0.788
- Seq: "CENCHYPIVPL [LCK_Y25]"
  Readout Type: "SH2 binding enrichment"
  Reported: 0.943
- Seq: "TDLAFYLVREG [ASL_Y376_K380E_YF]"
  Readout Type: "SH2 binding enrichment"
  Reported: 0.634
- Seq: "LLKNMYLMLDN [STAT1_Y203_K201N]"
  Readout Type: "SH2 binding enrichment"
  Reported: 0.975
- Seq: "EYLHKYKGFKI [SYNE1_Y6953_Q6951H]"
  Readout Type: "SH2 binding enrichment"
  Reported: 0.861
- Seq: "DVFVSYDFGKS [SORL1_Y139_YF]"
  Readout Type: "SH2 binding enrichment"
  Reported: 0.863
- Seq: "AISEGYKDFRA [CDA_Y79_V75I]"
  Readout Type: "SH2 binding enrichment"
  Reported: 0.829
- Seq: "AGQEEYSAMRD [HRAS_Y64]"
  Readout Type: "SH2 binding enrichment"
  Reported: 0.816
- Seq: "IGRWVYPLTPE [EIF2B5_Y319_R315G]"
  Readout Type: "SH2 binding enrichment"
  Reported: 0.962
- Seq: "EFISECCGEII [EZH2_Y641_Y641C]"
  Readout Type: "SH2 binding enrichment"
  Reported: 0.954
- Seq: "SVTCTYSPTLN [TP53_Y126_A129T]"
  Readout Type: "SH2 binding enrichment"
  Reported: 0.639
- Seq: "EVTLTYATGTK [NFKB1_Y485]"
  Readout Type: "SH2 binding enrichment"
  Reported: 0.701
- Seq: "MARDISRASYY [ALK_Y1278_Y1278S]"
  Readout Type: "SH2 binding enrichment"
  Reported: 0.776
- Seq: "RSHLPYDVTPE [IQGAP3_Y1098]"
  Readout Type: "SH2 binding enrichment"
  Reported: 0.827
- Seq: "TFGVLYKARNK [CDK2_Y19_V18L_YF]"
  Readout Type: "SH2 binding enrichment"
  Reported: 0.828
